meta.source: ChEMBL document CHEMBL3880438

Target: Free fatty acid receptor 3 (Rattus norvegicus)
Experiment: Agonist activity at GPR41 in rat primary adipocytes assessed as inhibition of isoprenaline-induced lipolysis by measuring glycerol level after 2 hrs
Format: cell-based

>  <COMPOUND>
CC(=O)[O-].[Na+]

>  <Activity>
Dose-dependent effect

$$$$
>  <COMPOUND>
CCC(=O)[O-].[Na+] [SODIUM PROPIONATE]

>  <Activity>
Dose-dependent effect

$$$$
>  <COMPOUND>
CC(=O)[O-].N.O=CO.[Na+]

>  <Activity>
Dose-dependent effect

$$$$
